Target under test: T1, recombinant gp120 of HIV-1 strain IIIb (HIV-1 strain IIIb, UniProt P04578 33-511)
T1 construct: domain: gp120; also called IIIb-derived gp120; gp 120 (IIIB strain)
Protocol text: SPR BIAcore, gp120 on chip
Assay metric: Fold Increase of Mutant Kd Compared to MT4 Kd (fold)

| Binder | Reported result |
| --- | --- |
| Fab QA11 (Fab, V domains shown, also called LH (its light chain)) VH: LEQSGAEVKKPGASVKVSCQASGYRFSNFTVHWVRQAPGQRFEWMGWINPYNGNKEFSAKFQDRVTFTADTSANTAYMELRSLRSADTAVYYCARVGEWGWDDSPQDNYYMDVWGKGTTVIVSS VL: ELTQSPGTLSLSPGERATFSCRSSHQLDGSRVAWYQHKPGQAPRLVIHGVSNRASGISDRFSGSGSGTDFTLTITRVEPEDFALYYCQTYGRGHYTFGQGTKLERKR | 94.4 |
| Fab QA4 (Fab, V domains shown) VH: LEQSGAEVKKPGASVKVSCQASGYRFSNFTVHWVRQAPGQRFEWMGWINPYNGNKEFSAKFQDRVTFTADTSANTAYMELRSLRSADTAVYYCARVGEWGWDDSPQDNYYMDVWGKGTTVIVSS VL: ELTQSPGTLSLSPGERATFSCRSSHQLDGSRVAWYQHKPGQAPRLVIHGVSNRASGISDRFSGSGSGTDFTLTITRVEPEDFALYYCQSYGGRDYTFGQGTKLERKR | 12.6 |
| Fab QA10 (Fab, V domains shown) VH: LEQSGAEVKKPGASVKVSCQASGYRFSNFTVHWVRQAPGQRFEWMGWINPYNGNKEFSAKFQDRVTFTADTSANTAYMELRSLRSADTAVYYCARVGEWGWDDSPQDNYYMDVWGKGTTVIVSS VL: ELTQSPGTLSLSPGERATFSCRSSHQLDGSRVAWYQHKPGQAPRLVIHGVSNRASGISDRFSGSGSGTDFTLTITRVEPEDFALYYCQTYGRGSYTFGQGTKLERKR | 85.9 |

Recorded values, source patent US6395275.
